Ref: ChEMBL document CHEMBL1123382

Tested on: Rattus norvegicus
Assay: Biodistribution in Rat heart after 5 minutes of iv administration
Assay type: ADME, organism-based
Conditions: in vivo
We begin with a simple list: items and their reported Biodistribution.
parameter: Biodistribution (%)

>>> valuemeasured("CCCCCCCCCCCCCCCC(=O)OC(COC(=O)CCCCCCCCCCCCCCCCc1c(I)cc(I)c(N)c1I)COC(=O)CCCCCCCCCCCCCCCCc1c(I)cc(I)c(N)c1I")
0.87
>>> valuemeasured("Nc1c(I)cc(I)c(CCCCCCCCCCCC(=O)OCC(COC(=O)CCCCCCCCCCCc2c(I)cc(I)c(N)c2I)OC(=O)CCCCCCCCCCCc2c(I)cc(I)c(N)c2I)c1I")
2.67
>>> valuemeasured("CCC(Cc1c(I)cc(I)c(N)c1I)C(=O)OCC(COC(=O)C(CC)Cc1c(I)cc(I)c(N)c1I)OC(=O)C(CC)Cc1c(I)cc(I)c(N)c1I (stereo unspecified)")
0.97
>>> valuemeasured("Nc1c(I)cc(I)c(CCCCCCCCCCCCCCCCC(=O)OCC(COC(=O)CCCCCCCCCCCCCCCCc2c(I)cc(I)c(N)c2I)OC(=O)CCCCCCCCCCCCCCCCc2c(I)cc(I)c(N)c2I)c1I")
0.74
>>> valuemeasured("CCCCCCCCCCCCCCCC(=O)OC(COC(=O)CCCCCCCCCCCc1c(I)cc(I)c(N)c1I)COC(=O)CCCCCCCCCCCc1c(I)cc(I)c(N)c1I")
1.43
>>> valuemeasured("Nc1c(I)cc(I)c(CCC(=O)OCC(COC(=O)CCc2c(I)cc(I)c(N)c2I)OC(=O)CCc2c(I)cc(I)c(N)c2I)c1I")
1.93
